# Tested on: UACC-62 melanoma
# TEST_DESCRIPTION: NCI tumour cell line growth inhibition, 48 h
VALUE_TYPE: TGI (µM)
Number in µM, nothing else.

Below are worked cases with known answers.
Summary for this compound, "COCCNC(=O)c1ccc(-c2nc3ccc4[nH]ncc4c3c3c2CCCC3)cc1" : TGI is 13.1

Summary for this compound, "ClCc1ccc2ccc3ccc(CCl)nc3c2n1" : TGI is 2.64

Summary for this compound, "C=C1C(=O)O[C@H]2[C@H]1CC/C(CNS(=O)(=O)c1cccc3ccccc13)=C\CC[C@@]1(C)O[C@@H]21" : TGI is 4.5

Switching to the query record.
Summary for this compound, "Clc1ccc2c(c1)-c1ccccc1C1=NCCN12" : TGI is 3.48
